Data provenance is PubChem BioAssay (NCI).

# Tested on: SK-MEL-2 melanoma
# protocol notes: NCI-60 one-dose screen, 48 h
# recorded conditions: 10 µM unless noted
This is part of a sample that, as a whole, favours compounds with a hit. Of some 83,000 tested, about 20% had one in any assay. Active and inactive are the calls of the source. How the source made its calls: active means growth percent below 10; inactive means the rest.
Pick one and only one: active, inactive

Data request: Could you kindly confirm the outcome this assay logged for CCn1cc(C2=C(c3cn(C)c4ncccc34)C(=O)NC2=O)c2cccnc21 ?
Data returned: inactive

Data request: What call does the record list for O=C(CN1C(=O)/C(=C/c2ccco2)SC1=S)NCCc1c[nH]c2ccc(F)cc12 ?
Data returned: inactive

Data request: Could you kindly confirm the outcome this assay logged for CCOC(=O)C(=Cc1cccc(C#N)c1)C(=O)OCC ?
Data returned: inactive

Data request: Check the results log: what was the call for COc1cccc(/C=C/C(=O)c2cc3c(N)c(C(=O)Nc4ccccc4C)sc3nc2C)c1 ?
Data returned: inactive

Data request: Entry COc1cc2oc(-c3cccc(NC(=O)c4ccc5c(c4)OCO5)c3)cc(=O)c2c(OC)c1OC : call = ?
Data returned: inactive

Data request: Recorded test outcome, item CS(=O)(=O)Nc1cncc(-c2ccc3ncnc(Nc4ccc(F)c(Cl)c4)c3c2)c1
Data returned: active

Data request: Outcome? Cc1nc2sc(C(=O)Nc3ccc(Cl)cc3)c(N)c2cc1C(O)c1ccccc1 (stereo not given)
Data returned: inactive

Data request: Which outcome was assigned to CN(C)c1ccc(/C=C2/C=C(c3ccccc3)OC2=O)cc1 in this test?
Data returned: inactive

Data request: Field: outcome | Entry: O=C(CSc1nc2ccc([N+](=O)[O-])cc2[nH]1)Nc1cccc([N+](=O)[O-])c1
Data returned: inactive

Data request: Dear colleague, could you share the recorded outcome for CC(C)(C)c1cc(C=Nc2cccc(C(F)(F)F)c2)c(O)c(C(C)(C)C)c1 when you have a moment?
Data returned: inactive

Data request: Please state the recorded outcome for this compound: CCSC1=CC(=O)c2ccccc2C1=O
Data returned: inactive

Data request: Can you look up the reported call for CCN(CC)CCNC(=O)c1ccc(-c2nc3ccc4[nH]ncc4c3c3c2CCCC3)cc1 for me?
Data returned: inactive

Data request: Tell me the recorded outcome of this test for CCNCc1ccc(O)c2ncccc12 .
Data returned: inactive

Data request: Could you check what this test reported for COc1ccc(C2=C/C(=C\c3ccc(Cl)cc3)C(=O)N2/N=C/c2ccc(Cl)cc2)cc1 ?
Data returned: inactive

Data request: What call does the record list for CC1=NN(c2ccc(Cl)cc2)CC1(C)N=O (stereo not given) ?
Data returned: inactive

Data request: Please state the recorded outcome for this compound: O=C1CCCc2nc3sc4c(=O)n(-c5ccccc5Cl)nnc4c3cc21
Data returned: inactive

Data request: Hi, sorry to bother you, what did the test record for CC1(C)CC2=C3C=C[C@@H]4[C@@]5(C)CC[C@H](O)C(C)(C)[C@@H]5CC[C@@]4(C)[C@]3(C)CC[C@@]2(C(=O)O)CC1=O ?
Data returned: inactive

Data request: Query: recorded result category for C=CCn1c(SCC(=O)Nc2ccc(C(=O)/C=C/c3ccc(OC)cc3)cc2)nnc1-c1ccccc1 in this test
Data returned: inactive

Data request: Check the results log: what was the call for O=C1Nc2ccccc2/C1=C/c1cn(C[C@@H](O)Cn2c3ccccc3c(=O)c3ccccc32)c2ccccc12 ?
Data returned: inactive

Data request: Test call for this compound, please: O=c1[nH]c(-c2ccc(Cl)cc2)cn1-c1ccc(-n2cc(-c3ccc(Cl)cc3)[nH]c2=O)cc1
Data returned: inactive

Data request: Write down the call the test reported for this compound. Item: O=c1oc2c(cnc3ccccc32)cc1-c1cccs1
Data returned: inactive

Data request: What outcome does the record of this test show for O=C1CCC(C(=O)NN(c2ccccc2)c2ccccc2)N1 (stereo not given) ?
Data returned: inactive

Data request: Kindly provide the recorded test outcome for the following compound: COc1ccc2nc3ccccc3c(NCc3ccc(F)cc3)c2c1
Data returned: inactive

Data request: Hi, sorry to bother you, what did the test record for O=C(/C=C/c1ccccc1)Nc1ncc(Cc2ccccc2)s1 ?
Data returned: inactive

Data request: How did this test come out for COc1cccc(/C=C2\COc3ccc(O)cc3C2=O)c1 ?
Data returned: inactive

Data request: Hey, what did the test say about CNCc1cccc2c1OCCOCCN(C)C(=O)CN(C)S(=O)(=O)c1ccc(cc1)-c1cnc(N)c(n1)C(=O)N2 ?
Data returned: active

Data request: Tell me the assay call for Cn1cc(-c2csc(-c3cn(C)c4ccc(Br)cc34)n2)c2cnccc21 please.
Data returned: inactive

Data request: Name the outcome recorded for Cn1cc(-c2nonc2-c2c[nH]c3ccc(F)cc23)c2cc(Br)ccc21 in the assay.
Data returned: inactive

Data request: Hey, what did the test say about Brc1ccc(-c2cnc3nonc3n2)cc1 ?
Data returned: inactive

Data request: Entry Cc1ccc(N=Nc2c(N)nn(-c3ccccc3)c2N)cc1 : call = ?
Data returned: inactive

Data request: Record request — test call for Cc1[nH]c(C(=O)Nc2ccc(C(N)=O)cc2NC(C)C)c(Cl)c1Cl
Data returned: inactive

Data request: Please indicate how the test categorized OC(c1ccccc1)(c1ccccc1)c1ccccc1-c1ccccc1 .
Data returned: inactive

Data request: Per the assay record, what outcome was assigned to COc1ccc(/C(C)=C(\c2ccc(Cl)cc2)c2ccc(OCCN3CCCC3)cc2)cc1 ?
Data returned: inactive

Data request: Recorded test outcome, item COc1cc(Nc2ncccc2NC(=O)c2cn(Cc3cccc(Oc4ccccc4)c3)nn2)cc(OC)c1
Data returned: inactive

Data request: Each compound tested received a call. Report the one for Fc1ccc(COc2ccc(Nc3ncnc4sc5c(c34)CCCC5)cc2)cc1 .
Data returned: inactive

Data request: Lab log entry: CC(CN)[C@@H]1CC[C@]2(CO)CC[C@]3(C)[C@H](CC[C@@H]4[C@@]5(C)CCC(N)C(C)(C)[C@@H]5CC[C@]43C)[C@@H]12 (stereo not given in full) — outcome as called in the assay?
Data returned: inactive

Data request: Write down the call the test reported for this compound. Item: O=C(/C=C/c1ccc(Br)cc1)c1ccc(-n2cc(CN3CCN(c4cc5c(cc4F)c(=O)c(C(=O)O)cn5C4CC4)CC3)nn2)cc1
Data returned: inactive

Data request: Recorded call for Oc1c(Cl)cc(Cl)c2ccc(Cn3cc(-c4cccc(C(F)(F)F)c4)nn3)nc12 ?
Data returned: inactive

Data request: For this compound, state the assay outcome: COC(=O)Cc1nc(C#N)c(N(C)C)o1
Data returned: inactive

Data request: How did this test come out for Cc1ccc(-c2csc(NC(=O)N3CCN(c4cc5c(cc4F)c(=O)c(C(=O)O)cn5C4CC4)CC3)n2)cc1 ?
Data returned: active

----------
# Tested on: MDA-MB-435 melanoma
# protocol notes: NCI-60 one-dose screen, 48 h
# recorded conditions: 10 µM unless noted
Compounds without any hit were thinned out: in the full panel of roughly 83,000, 20% have a hit. The source made the active and inactive calls. The calls were made as follows: active = growth percent below 10; inactive = the rest.
In this exercise, the only acceptable responses are Y (active), N (inactive)

Data request: Record request — test call for O=c1nc(Nc2nc3ccccc3s2)[nH]c(=O)c2ccccc12
Data returned: N

Data request: Please state the recorded outcome for this compound: COc1cc(-c2nc3ccc(C)cc3[nH]2)ccc1OCC(=O)N=Nc1c(O)[nH]c2ccc(Cl)cc12
Data returned: Y

Data request: Which outcome was assigned to C=CCCC(=O)N1C=CC(=O)[C@H](O)[C@@H]1/C=C/c1ccccc1 in this test?
Data returned: N

Data request: Kindly provide the recorded test outcome for the following compound: CCCCn1sc(=O)n(Cc2ccc(CNC(=O)OCc3ccc4c(Br)cc(Br)c(O)c4n3)cc2)c1=O
Data returned: Y

Data request: What outcome does the record of this test show for O=C(CCCCNC(=O)c1cc(=O)c(O)co1)Nc1ccccc1 ?
Data returned: N

Data request: // outcome(item) with item = COc1ccc(-c2cc(C(=O)N3N=C(c4ccc(N)cc4)CC3c3ccccc3)c3ccccc3n2)cc1 (stereo unspecified)
Data returned: Y

----------
# Test system: U251 CNS
# protocol notes: NCI-60 one-dose screen, 48 h (100 = growth as untreated, 0 = no growth, -100 = all killed)
# recorded conditions: 10 µM unless noted
The panel holds about 83,000 compounds, 20% with a hit somewhere; the sample as a whole holds those more often.
Please map values of growth to classes as shown: b0 (below 20%), b1 (20% to below 80%), b2 (80% or more)

Data request: Which bin, given its growth, does CCCNc1nc2ccccc2c2c(=O)c3cccc(Cl)c3sc12 occupy?
Data returned: b2

Data request: Which class holds O=C1/C(=C/c2cccc([N+](=O)[O-])c2)COc2ccc(O)cc21 ?
Data returned: b0

Data request: Which bin should I file Cc1cc(N2CCN(C)CC2)nc(NCc2cc(Nc3ccnc4cc(Cl)ccc34)ccc2F)n1 under?
Data returned: b0

Data request: Sort into band: CC1=CCC[C@@H]2C1(C)CC[C@H](C)[C@@]2(C)CC1=CC(=O)C(SC(C)(C)C)=CC1=O (stereo not given in full)
Data returned: b2

Data request: Pick a category. Item: COc1ccc(/C(C)=C(\c2ccc(Cl)cc2)c2ccc(OCCN3CCCC3)cc2)cc1
Data returned: b0

Data request: # bin label for COc1ccc(-c2cn(-c3ccc(Cl)cc3)c(SCC(=O)c3ccc([N+](=O)[O-])cc3)n2)cc1
Data returned: b1

Data request: Textbook exercise: identify the category of the molecule given here, CCOC(=O)Cn1c(=O)c2c3ccccc3n(C)c2n2nnc(-c3ccccc3)c12 , according to its measured value.
Data returned: b2

Data request: For CN1CCN(c2ccc(NC(=O)c3cncnc3Nc3ccc4c(ccn4Cc4cccc(F)c4)c3)cc2)CC1 , which growth bin applies?
Data returned: b0

Data request: Form field 'band' for CN(CCC#N)c1ccc(/C=C2\NC(=O)NC2=O)cc1
Data returned: b2

Data request: Record CC/C=C\C/C=C/C=C1/C(=O)C=C[C@@H]1C/C=C\CCCC(=O)OC — which class?
Data returned: b1
